Tested on: Wild type
Test: S. aureus survival, RN4220 and DeltatarO strains – OD600, teichoic acid synthesis inhibitors, primary screen (AID 463173)
Settings: S. aureus RN4220 wild type/DeltatarO growth, OD600, 18 h, screened at 18.75 µg/mL (by protocol)
Screen size: about 52,000 compounds; about 1,700 (3.3%) were called active. Cut-off read from the data, not from the text of the source: active = survival mostly below about 52% (no sharp cut-off); inactive = mostly above about 56%. The sample holds actives, similar compounds and a random draw of the others, so the mix is not that of the screen.
Assign a class; possible classes are yes for active, no for inactive

Data request: Kindly provide the recorded test outcome for the following compound: Cc1cc(C)cc(N(CC(=O)Nc2c(C)cc(C)cc2C)S(=O)(=O)c2c(C)nn(C)c2C)c1
Data returned: yes

Data request: Now this one: CC(=O)c1ccc(NC(=O)c2cc3c([nH]c2=O)CC(c2ccccc2)CC3=O)cc1 (stereo not given)
Data returned: no

Data request: Proceed to Cc1ccc(NS(=O)(=O)c2ccc3[nH]c4c(c3c2)CCCCCC4)cc1C
Data returned: yes

Data request: Lookup CCN(CC)C(=O)c1sc2c(c1C)c(=O)n(Cc1ccccc1)c(=O)n2Cc1ccc(Cl)cc1
Data returned: no

Data request: Item: COC(=O)CCN(C(=O)C1CCN(S(=O)(=O)c2c(C)noc2/C=C/c2ccccc2F)CC1)c1ccccc1
Data returned: no
